# System: A549
# assay notes: Euclidean distance of Cell Painting phenotypic profile (signed KS, 77 features) to DMSO centroid (dimensionless distance); 5 or 10 uM (library dependent); higher = stronger phenotypic change vs DMSO (phenoactivity)
# experimental conditions: 48 h
Counter-ions that a name gives are not always drawn.
readout type: Euclidean distance
Give bare numbers.

>  <molecule>
C=C[C@@H]1C[C@]1(NC(=O)[C@@H]1C[C@@H](Oc2ncc(OC)c3ccc(Cl)cc23)CN1C(=O)[C@@H](NC(=O)OC(C)(C)C)C(C)(C)C)C(=O)NS(=O)(=O)C1CC1

>  <Euclidean distance>
1.49

$$$$
>  <molecule>
O=C(O)/C=C/c1ccc(O)cc1

>  <Euclidean distance>
0.995

$$$$
>  <molecule>
COC(=O)c1cc(OC)c2c(c1-c1c(C(=O)OC)cc(OC)c3c1OCO3)OCO2 [Bifendate]

>  <Euclidean distance>
1.51

$$$$
>  <molecule>
O=C(O)COCCN1CCN(C(c2ccccc2)c2ccc(Cl)cc2)CC1 (configuration not stated) [Cetirizine DiHCl]

>  <Euclidean distance>
0.92

$$$$
>  <molecule>
CN1CCN(CC(=O)N2c3ccccc3C(=O)Nc3cccnc32)CC1 [Pirenzepine dihydrochloride]

>  <Euclidean distance>
1.06

$$$$
>  <molecule>
COc1cc(C(=O)NS(=O)(=O)c2ccccc2C)ccc1Cc1cn(C)c2ccc(NC(=O)OC3CCCC3)cc12

>  <Euclidean distance>
1.5

$$$$
>  <molecule>
C[C@H]1O[C@@H](O[C@H]2CC[C@@]3(C)[C@@H](CC[C@]4(C)[C@@H]3C=C[C@]35OC[C@@]6(CCC(C)(C)C[C@H]63)[C@H](O)C[C@]54C)[C@]2(C)CO)[C@H](O)[C@@H](O[C@@H]2O[C@H](CO)[C@@H](O)[C@H](O)[C@H]2O)[C@H]1O

>  <Euclidean distance>
2.4

$$$$
>  <molecule>
Nc1ccn([C@@H]2CS[C@H](CO)O2)c(=O)n1

>  <Euclidean distance>
0.508

$$$$
>  <molecule>
NS(=O)(=O)c1cc(Cl)c(Cl)c(S(N)(=O)=O)c1 [Dichlorphenamide]

>  <Euclidean distance>
0.762

$$$$
>  <molecule>
CS(=O)(=O)n1cc2c(n1)CN([C@H]1CO[C@H](c3cc(F)ccc3F)[C@@H](N)C1)C2

>  <Euclidean distance>
2.02

$$$$

Answer for every listed entry: what is its Euclidean distance? The entries follow.
1. COc1ccc(CC(C)(C)NC[C@H](O)c2cc(O)cc3c2OCC(=O)N3)cc1 [Olodaterol hydrochloride]
2. O=C(Nc1ccccc1Br)N[C@@H]1CCN(c2ccc(C(F)(F)F)cn2)C1

**A:**
[0.364, 0.999]

Recorded values, source the supplement of paper PMC10127200.
